- Method notes: activity coefficient (dimensionless); of the first substance listed, at infinite dilution; xn = mol fraction of the nth substance listed
- Condition details: 323.15 K; 101 kPa; Liquid; Chromatography; x1 = 0
Quantity measured: activity coefficient
Lab note: jot down the number only; don't add units.

# return recorded activity coefficient for entry CC#N [acetonitrile] + C[n+]1ccn(CCCB(O)O)c1.[Br-] 3.3

# return recorded activity coefficient for entry CCCCCCCC [octane] + CCCCCCCCCC[n+]1ccn(CCCB(O)O)c1.[Br-] 8.81

# return recorded activity coefficient for entry Cc1ccccc1 [toluene] + C=CCn1cc[n+](C)c1.[Br-] 6.19

# return recorded activity coefficient for entry CCCCCCCC [octane] + C=CC[n+]1ccn(CCCCCCCC)c1.[Br-] 14.9

# return recorded activity coefficient for entry Cc1ccccc1 [toluene] + CCCCCCCCCC[n+]1ccn(CCCB(O)O)c1.[Br-] 1.8

# return recorded activity coefficient for entry ClC(Cl)(Cl)Cl [tetrachloromethane] + C=CC[n+]1ccn(CCCCCCCCCC)c1.[Br-] 0.8

# return recorded activity coefficient for entry ClCCl [dichloromethane] + C=CC[n+]1ccn(CCCCCCCC)c1.[Br-] 0.28

# return recorded activity coefficient for entry CC#N [acetonitrile] + C=CCn1cc[n+](C)c1.[Br-] 1.04

# return recorded activity coefficient for entry ClCCl [dichloromethane] + C=CC[n+]1ccn(CCCCCCCCCCCC)c1.[Br-] 0.25

# return recorded activity coefficient for entry CCCO [propan-1-ol] + C=CC[n+]1ccn(CCCCCCCCCC)c1.[Br-] 0.28

# return recorded activity coefficient for entry CCCCCCCCC [nonane] + C=CC[n+]1ccn(CCCCCCCCCCCC)c1.[Br-] 6.93

# return recorded activity coefficient for entry CCC(C)=O [butanone] + CCCCCCCC[n+]1ccn(CCCB(O)O)c1.[Br-] 1.88

# return recorded activity coefficient for entry ClC(Cl)Cl [trichloromethane] + CCCCCCCC[n+]1ccn(CCCB(O)O)c1.[Br-] 0.23

# return recorded activity coefficient for entry C1CCCCC1 [cyclohexane] + CCCCCCCCCC[n+]1ccn(CCCB(O)O)c1.[Br-] 3.89

# return recorded activity coefficient for entry Cc1ccccc1C [1,2-dimethylbenzene] + C=CC[n+]1ccn(CCCCCCCCCCCC)c1.[Br-] 1.66

# return recorded activity coefficient for entry CO [methanol] + CCCCCCCCCC[n+]1ccn(CCCB(O)O)c1.[Br-] 0.05

# return recorded activity coefficient for entry CCCCCCC [heptane] + C=CCn1cc[n+](C)c1.[Br-] 49.6

# return recorded activity coefficient for entry CCCCCCC [heptane] + C=CC[n+]1ccn(CCCCCCCCCCCC)c1.[Br-] 5.32

# return recorded activity coefficient for entry CO [methanol] + C=CCn1cc[n+](C)c1.[Br-] 0.18

* * *

- Method notes: activity coefficient (dimensionless); of the first substance listed, at infinite dilution; xn = mol fraction of the nth substance listed
- Condition details: 323.15 K; 101 kPa; Liquid; Chromatography; x1 = 0
Please note: yes (1) applies when activity coefficient is 1 or greater, and no (0) applies otherwise.

Threshold query (activity coefficient >= 1) on CCCCCCCC [octane] + CCCCCCCC[n+]1ccn(CCCB(O)O)c1.[Br-] yes (1)

Threshold query (activity coefficient >= 1) on Cc1ccccc1 [toluene] + C[n+]1ccn(CCCB(O)O)c1.[Br-] yes (1)

Threshold query (activity coefficient >= 1) on CCOCC [diethyl ether] + C=CC[n+]1ccn(CCCCCCCC)c1.[Br-] yes (1)

Threshold query (activity coefficient >= 1) on C=CCCCC [hex-1-ene] + C=CC[n+]1ccn(CCCCCCCC)c1.[Br-] yes (1)

Threshold query (activity coefficient >= 1) on CCCO [propan-1-ol] + C=CC[n+]1ccn(CCCCCCCC)c1.[Br-] no (0)

Threshold query (activity coefficient >= 1) on CC#N [acetonitrile] + CCCCCCCC[n+]1ccn(CCCB(O)O)c1.[Br-] yes (1)

Threshold query (activity coefficient >= 1) on CCCC(C)=O [pentan-2-one] + C=CCn1cc[n+](C)c1.[Br-] yes (1)

Threshold query (activity coefficient >= 1) on ClC(Cl)(Cl)Cl [tetrachloromethane] + C=CC[n+]1ccn(CCCCCCCC)c1.[Br-] no (0)

Threshold query (activity coefficient >= 1) on c1ccsc1 [thiophene] + CCCCCCCC[n+]1ccn(CCCB(O)O)c1.[Br-] yes (1)

Threshold query (activity coefficient >= 1) on c1ccccc1 [benzene] + C=CC[n+]1ccn(CCCCCCCCCC)c1.[Br-] yes (1)

Threshold query (activity coefficient >= 1) on CCCCCCC [heptane] + C=CC[n+]1ccn(CCCCCCCCCC)c1.[Br-] yes (1)

Threshold query (activity coefficient >= 1) on ClC(Cl)Cl [trichloromethane] + C=CC[n+]1ccn(CCCCCCCCCCCC)c1.[Br-] no (0)

Threshold query (activity coefficient >= 1) on CO [methanol] + C=CC[n+]1ccn(CCCCCCCCCC)c1.[Br-] no (0)

Threshold query (activity coefficient >= 1) on ClCCl [dichloromethane] + C=CCn1cc[n+](C)c1.[Br-] no (0)

Threshold query (activity coefficient >= 1) on C=CCCCC [hex-1-ene] + CCCCCCCCCCCC[n+]1ccn(CCCB(O)O)c1.[Br-] yes (1)

Threshold query (activity coefficient >= 1) on CCCCCCCC [octane] + C[n+]1ccn(CCCB(O)O)c1.[Br-] yes (1)

Threshold query (activity coefficient >= 1) on ClC(Cl)Cl [trichloromethane] + C=CC[n+]1ccn(CCCCCCCC)c1.[Br-] no (0)

Threshold query (activity coefficient >= 1) on CCC(C)=O [butanone] + CCCCCCCCCCCC[n+]1ccn(CCCB(O)O)c1.[Br-] yes (1)

Threshold query (activity coefficient >= 1) on CCO [ethanol] + C=CCn1cc[n+](C)c1.[Br-] no (0)

Threshold query (activity coefficient >= 1) on CCCC(C)=O [pentan-2-one] + CCCCCCCCCCCC[n+]1ccn(CCCB(O)O)c1.[Br-] yes (1)

Threshold query (activity coefficient >= 1) on C1CCCCC1 [cyclohexane] + CCCCCCCCCCCC[n+]1ccn(CCCB(O)O)c1.[Br-] yes (1)

Threshold query (activity coefficient >= 1) on C#CCCCCC [1-heptyne] + CCCCCCCCCC[n+]1ccn(CCCB(O)O)c1.[Br-] yes (1)

Threshold query (activity coefficient >= 1) on CO [methanol] + C[n+]1ccn(CCCB(O)O)c1.[Br-] no (0)

Threshold query (activity coefficient >= 1) on C1CCCCC1 [cyclohexane] + C=CCn1cc[n+](C)c1.[Br-] yes (1)

Threshold query (activity coefficient >= 1) on C1CCCCC1 [cyclohexane] + CCCCCCCC[n+]1ccn(CCCB(O)O)c1.[Br-] yes (1)

Threshold query (activity coefficient >= 1) on CCC[N+](=O)[O-] [1-nitropropane] + C=CCn1cc[n+](C)c1.[Br-] yes (1)

Threshold query (activity coefficient >= 1) on CCc1ccccc1 [ethylbenzene] + C=CC[n+]1ccn(CCCCCCCC)c1.[Br-] yes (1)

Threshold query (activity coefficient >= 1) on CCCCCCCCC [nonane] + CCCCCCCC[n+]1ccn(CCCB(O)O)c1.[Br-] yes (1)

Threshold query (activity coefficient >= 1) on CO [methanol] + CCCCCCCC[n+]1ccn(CCCB(O)O)c1.[Br-] no (0)

Threshold query (activity coefficient >= 1) on C=CCCCC [hex-1-ene] + C=CC[n+]1ccn(CCCCCCCCCC)c1.[Br-] yes (1)

Threshold query (activity coefficient >= 1) on Cc1cccc(C)c1 [1,3-dimethylbenzene] + C=CC[n+]1ccn(CCCCCCCCCCCC)c1.[Br-] yes (1)

Threshold query (activity coefficient >= 1) on Cc1ccccc1 [toluene] + C=CC[n+]1ccn(CCCCCCCCCCCC)c1.[Br-] yes (1)

Threshold query (activity coefficient >= 1) on Cc1cccc(C)c1 [1,3-dimethylbenzene] + CCCCCCCCCCCC[n+]1ccn(CCCB(O)O)c1.[Br-] yes (1)
